The reported numbers originate from PubChem BioAssay (NCI).

Test system: OVCAR-3 ovarian
experimental_protocol: NCI tumour cell line growth inhibition, 48 h; in the data active = GI50 below about 0.43 µM; inactive = the rest
Outcome (select one): t (active), f (inactive)

Example results:
1) C=CC1C(CC2OC(CO)C(O)C(O)C2O)OC=C2C(=O)OCCC21O (stereo not given) :: f
2) O=C1NC(=O)C(c2cccc(Cl)c2)=C1Nc1ccc(Cl)c(C(=O)O)c1 :: f
3) O=C1OCC2=C1C(c1cccc(C(F)(F)F)c1)c1cc3c(cc1N2CCO)OCCO3 (stereo not given) :: f
4) O=C(O)Cn1c2c(c3c1-c1ccccc1C3=O)C(=O)CCC2 :: f

Now look at this one.
In: Look up the recorded call for CC(C)C[C@H](NC(=O)Cn1cccc(CNC(=O)c2ccccc2)c1=O)B(O)O in this test.
Out: t
